Values compiled from ChEMBL document CHEMBL5046283.

Overview of recorded pIC50 for various molecules
Tested on: SW-620
Experiment: Cytotoxicity against human SW-620 tumor organoid assessed as reduction in cell viability incubated for 72 hrs by CellTiter Glo assay
Type: functional, cell-based
Settings: SW-620, 72 h
pIC50 is a log-scale quantity: -log10 of the concentration expressed in molar.

Challenge: Look up pIC50 with SW-620 for this molecule: Cc1cc(Nc2ccc(NC(=O)Cc3c[nH]c4cc(Cl)ccc34)cc2)nc(N2CCCC2)n1
Response given: 5.85

Challenge: Look up pIC50 with SW-620 for this molecule: Cc1cc(Nc2ccc(NC(=O)Cc3cc(Cl)nc4ccccc34)cc2)nc(N2CCCC2)n1
Response given: 5.62

Challenge: Look up pIC50 with SW-620 for this molecule: Cc1cc(Nc2ccc(NC(=O)Cc3c(C)[nH]c4ccccc34)cc2)nc(N2CCCC2)n1
Response given: 5.80

Challenge: Look up pIC50 with SW-620 for this molecule: Cc1cc(Nc2ccc(NC(=O)Cc3cccs3)cc2)nc(N2CCCC2)n1
Response given: 5.34

Challenge: Look up pIC50 with SW-620 for this molecule: Cc1cc(Nc2ccc(NC(=O)Cc3cc(Br)cs3)cc2)nc(N2CCCC2)n1
Response given: 5.59

* * *

Overview of recorded IC50 for various molecules
Experiment: Induction of mesenchymal-epithelial transition in human HCT-116 M-phenotype tumor organoid assessed as downregulation of vimentin expression by fluorescence analysis
Assay type: functional, cell-based
Please respond with the number in µM and leave the unit unwritten.

Record excerpt, results attached:
Challenge: Value lookup for IC50; key = Cc1cc(Nc2ccc(NC(=O)Cc3cc(Cl)nc4ccccc34)cc2)nc(N2CCCC2)n1
Response given: 2.6

Challenge: Value lookup for IC50; key = Cc1cc(Nc2ccc(NC(=O)Cc3c[nH]c4cc(Cl)ccc34)cc2)nc(N2CCCC2)n1
Response given: 2.5

Challenge: Value lookup for IC50; key = Cc1cc(Nc2ccc(NC(=O)Cc3c[nH]c4ccccc34)cc2)nc(N2CCCC2)n1
Response given: 1.9

Challenge: Value lookup for IC50; key = Cc1cc(Nc2ccc(NC(=O)Cc3cccs3)cc2)nc(N2CCCC2)n1
Response given: 13

Challenge: Value lookup for IC50; key = Cc1cc(Nc2ccc(NC(=O)Cc3cccc4ccccc34)cc2)nc(N2CCCC2)n1
Response given: 2.6

Challenge: Value lookup for IC50; key = Cc1cc(Nc2ccc(NC(=O)Cc3cc(Br)cs3)cc2)nc(N2CCCC2)n1
Response given: 5

Others:
Challenge: Value lookup for IC50; key = Cc1cc(Nc2ccc(NC(=O)Cc3c(C)[nH]c4ccccc34)cc2)nc(N2CCCC2)n1
Response given: 2.7

* * *

Test system: HCT-116
Experiment: Inhibition of cell stemness in human HCT-116 M-phenotype cells assessed as reduction in colony formation
Format: functional, cell-based
Overview of recorded pIC50 for various compounds
pIC50 is a log-scale quantity: -log10 of the concentration expressed in molar.

Challenge: Value lookup for pIC50; key = Cc1cc(Nc2ccc(NC(=O)Cc3cccc4ccccc34)cc2)nc(N2CCCC2)n1
Response given: 6.30

Others:
Challenge: Value lookup for pIC50; key = Cc1cc(Nc2ccc(NC(=O)Cc3cc(Cl)nc4ccccc34)cc2)nc(N2CCCC2)n1
Response given: 6.70

Challenge: Value lookup for pIC50; key = Cc1cc(Nc2ccc(NC(=O)Cc3c[nH]c4ccccc34)cc2)nc(N2CCCC2)n1
Response given: 6.05

Challenge: Value lookup for pIC50; key = Cc1cc(Nc2ccc(NC(=O)Cc3cccs3)cc2)nc(N2CCCC2)n1
Response given: 5.49

Challenge: Value lookup for pIC50; key = Cc1cc(Nc2ccc(NC(=O)Cc3cc(Br)cs3)cc2)nc(N2CCCC2)n1
Response given: 6.10

Challenge: Value lookup for pIC50; key = Cc1cc(Nc2ccc(NC(=O)Cc3c(C)[nH]c4ccccc34)cc2)nc(N2CCCC2)n1
Response given: 6.05

Challenge: Value lookup for pIC50; key = Cc1cc(Nc2ccc(NC(=O)Cc3c[nH]c4cc(Cl)ccc34)cc2)nc(N2CCCC2)n1
Response given: 6.40

* * *

Test: Cytotoxicty against CRC042 patient-derived tumor organoids assessed as reduction in cell viability incubated for 72 hrs by CellTiter Glo assay
Format: functional
Settings: Homo sapiens, Neoplasm
Overview of recorded IC50 for various molecules
Please respond with the number in µM and leave the unit unwritten.

Challenge: Value lookup for IC50; key = Cc1cc(Nc2ccc(NC(=O)Cc3cccc4ccccc34)cc2)nc(N2CCCC2)n1
Response given: 3.1

Others:
Challenge: Value lookup for IC50; key = Cc1cc(Nc2ccc(NC(=O)Cc3c(C)[nH]c4ccccc34)cc2)nc(N2CCCC2)n1
Response given: 4

Challenge: Value lookup for IC50; key = Cc1cc(Nc2ccc(NC(=O)Cc3cc(Br)cs3)cc2)nc(N2CCCC2)n1
Response given: 4.2

Challenge: Value lookup for IC50; key = Cc1cc(Nc2ccc(NC(=O)Cc3cccs3)cc2)nc(N2CCCC2)n1
Response given: 16

Challenge: Value lookup for IC50; key = Cc1cc(Nc2ccc(NC(=O)Cc3c[nH]c4ccccc34)cc2)nc(N2CCCC2)n1
Response given: 6.2

Challenge: Value lookup for IC50; key = Cc1cc(Nc2ccc(NC(=O)Cc3cc(Cl)nc4ccccc34)cc2)nc(N2CCCC2)n1
Response given: 3.1

Challenge: Value lookup for IC50; key = Cc1cc(Nc2ccc(NC(=O)Cc3c[nH]c4cc(Cl)ccc34)cc2)nc(N2CCCC2)n1
Response given: 3.4
